Please respond with reported % dose kg./g. in Ovaries for every item in the list.
- assay-overview: Tissue distribution of selenium-75-labelled sterols in rats, sixth day post-injection
- Format: in vivo, rats of the C.F.Y. strain
- protocol-conditions: female rats, tail vein, dose: 1, 7: 40 μCi, 6: 50 μCi, 3: 30 μCi, 4: 1.5 μCi, 5: 10 μCi, 8: 6.3 μCi
One number for each entry, in % dose kg./g..

{"columns": ["molecule", "result-units", "% dose kg./g. in Ovaries"],
 "data": [
  ["CC(C)CCC[C@@H](C)[C@H]1CC[C@H]2[C@@H]3C[C@@H](C[75Se]C4CCCCC4)C4=C(CC[C@H](O)C4)[C@H]3CC[C@]12C [Example 4]", "% dose kg./g.", 2.568]
]}

Items follow; give % dose kg./g. in Ovaries for each.
1. CC(C)CCC[C@@H](C)[C@H]1CC[C@H]2[C@@H]3C[C@@H](C[75Se]c4ccccc4)C4=C(CC[C@H](O)C4)[C@H]3CC[C@]12C [Example 8]
2. CCCC[75Se]C[C@@H]1C[C@@H]2[C@H](CC[C@]3(C)[C@@H]([C@H](C)CCCC(C)C)CC[C@@H]23)C2=C1C[C@@H](O)CC2 [Example 3]
3. CC(C)CCC[C@@H](C)[C@H]1CC[C@H]2[C@@H]3C[C@@H](C[75Se](C)=O)C4=C(CC[C@H](O)C4)[C@H]3CC[C@]12C (stereo partly shown) [Example 7]

1: 2.578; 2: 2.553; 3: 0.817

---

- assay-overview: Tissue distribution of selenium-75-labelled sterols in rats, sixth day post-injection
- Type: in vivo, rats of the C.F.Y. strain
- protocol-conditions: male and female rats, tail vein, dose: 1, 7: 40 μCi, 6: 50 μCi, 3: 30 μCi, 4: 1.5 μCi, 5: 10 μCi, 8: 6.3 μCi
assay-metric: % dose kg./g. in Liver

{"columns": ["molecule", "% dose kg./g. in Liver"],
 "data": [
  ["C[75Se]C[C@@H]1C[C@@H]2[C@H](CC[C@]3(C)[C@@H]([C@H](C)CCCC(C)C)CC[C@@H]23)C2=C1C[C@@H](O)CC2 [Example 1]", "0.054 % dose kg./g."],
  ["CC(C)CCC[C@@H](C)[C@H]1CC[C@H]2[C@@H]3C[C@@H](C[75Se]C4CCCCC4)C4=C(CC[C@H](O)C4)[C@H]3CC[C@]12C [Example 4]", "0.148 % dose kg./g."]
]}

Below: the item to evaluate.
// % dose kg./g. in Liver lookup, key: C[75Se]C[C@@H]1C[C@@H]2[C@H](CC[C@]3(C)[C@@H]([C@H](C)CCCC(C)C)CC[C@@H]23)C2=C1C[C@@H](OC(C)=O)CC2 [Example 6] 0.074 % dose kg./g.

---

- assay-overview: Tissue distribution of selenium-75-labelled sterols in rats, sixth day post-injection
- Assay type: in vivo, rats of the C.F.Y. strain
- protocol-conditions: male and female rats, tail vein, dose: 1, 7: 40 μCi, 6: 50 μCi, 3: 30 μCi, 4: 1.5 μCi, 5: 10 μCi, 8: 6.3 μCi
assay-metric: % dose kg./g. in Liver (% dose kg./g.)
Answers are plain numbers, in % dose kg./g..

Below, each entry is followed by its recorded % dose kg./g. in Liver result.
{"columns": ["compound", "result-units", "% dose kg./g. in Liver"],
 "data": [
  ["CC(C)CCC[C@@H](C)[C@H]1CC[C@H]2[C@@H]3C[C@@H](C[75Se]Cc4ccccc4)C4=C(CC[C@H](O)C4)[C@H]3CC[C@]12C [Example 5]", "% dose kg./g.", 0.393],
  ["CC(C)CCC[C@@H](C)[C@H]1CC[C@H]2[C@@H]3C[C@@H](C[75Se]c4ccccc4)C4=C(CC[C@H](O)C4)[C@H]3CC[C@]12C [Example 8]", "% dose kg./g.", 0.144]
]}

Hi, could you look up % dose kg./g. in Liver for each item in my list?
1. CC(C)CCC[C@@H](C)[C@H]1CC[C@H]2[C@@H]3C[C@@H](C[75Se](C)=O)C4=C(CC[C@H](O)C4)[C@H]3CC[C@]12C (stereo partly shown) [Example 7]
2. CCCC[75Se]C[C@@H]1C[C@@H]2[C@H](CC[C@]3(C)[C@@H]([C@H](C)CCCC(C)C)CC[C@@H]23)C2=C1C[C@@H](O)CC2 [Example 3]

0.091
0.096

---

- assay-overview: Tissue distribution of selenium-75-labelled sterols in rats, sixth day post-injection
- Assay type: in vivo, rats of the C.F.Y. strain
- protocol-conditions: male and female rats, tail vein, dose: 1, 7: 40 μCi, 6: 50 μCi, 3: 30 μCi, 4: 1.5 μCi, 5: 10 μCi, 8: 6.3 μCi
Param threshold (6 % dose kg./g.) applies to % dose kg./g. in Adrenals; output y when value >= threshold, n when value < threshold.

Study these solved cases before continuing.
{"columns": ["compound", "answer-label"],
 "data": [
  ["CC(C)CCC[C@@H](C)[C@H]1CC[C@H]2[C@@H]3C[C@@H](C[75Se]Cc4ccccc4)C4=C(CC[C@H](O)C4)[C@H]3CC[C@]12C [Example 5]", "n"],
  ["CC(C)CCC[C@@H](C)[C@H]1CC[C@H]2[C@@H]3C[C@@H](C[75Se]C4CCCCC4)C4=C(CC[C@H](O)C4)[C@H]3CC[C@]12C [Example 4]", "n"],
  ["C[75Se]C[C@@H]1C[C@@H]2[C@H](CC[C@]3(C)[C@@H]([C@H](C)CCCC(C)C)CC[C@@H]23)C2=C1C[C@@H](OC(C)=O)CC2 [Example 6]", "y"],
  ["CCCC[75Se]C[C@@H]1C[C@@H]2[C@H](CC[C@]3(C)[C@@H]([C@H](C)CCCC(C)C)CC[C@@H]23)C2=C1C[C@@H](O)CC2 [Example 3]", "y"],
  ["CC(C)CCC[C@@H](C)[C@H]1CC[C@H]2[C@@H]3C[C@@H](C[75Se](C)=O)C4=C(CC[C@H](O)C4)[C@H]3CC[C@]12C (stereo partly shown) [Example 7]", "n"]
]}

Please examine the following record next.
I'd appreciate it if you could say whether C[75Se]C[C@@H]1C[C@@H]2[C@H](CC[C@]3(C)[C@@H]([C@H](C)CCCC(C)C)CC[C@@H]23)C2=C1C[C@@H](O)CC2 [Example 1] has % dose kg./g. in Adrenals at least equal to 6 % dose kg./g.. y

---

I'd appreciate it if you could supply Concentration Ratio; Adrenals: Testes values for the items below.
- assay-overview: Tissue distribution of selenium-75-labelled sterols in rats, sixth day post-injection
- Type: in vivo, rats of the C.F.Y. strain
- protocol-conditions: rats, tail vein, dose: 1, 7: 40 μCi, 6: 50 μCi, 3: 30 μCi, 4: 1.5 μCi, 5: 10 μCi, 8: 6.3 μCi

{"columns": ["molecule", "reported-measurement"],
 "data": [
  ["C[75Se]C[C@@H]1C[C@@H]2[C@H](CC[C@]3(C)[C@@H]([C@H](C)CCCC(C)C)CC[C@@H]23)C2=C1C[C@@H](OC(C)=O)CC2 [Example 6]", 166.4],
  ["CC(C)CCC[C@@H](C)[C@H]1CC[C@H]2[C@@H]3C[C@@H](C[75Se]c4ccccc4)C4=C(CC[C@H](O)C4)[C@H]3CC[C@]12C [Example 8]", 171.2]
]}

I have 4 molecules here; please give me Concentration Ratio; Adrenals: Testes for each one.
1. CC(C)CCC[C@@H](C)[C@H]1CC[C@H]2[C@@H]3C[C@@H](C[75Se]Cc4ccccc4)C4=C(CC[C@H](O)C4)[C@H]3CC[C@]12C [Example 5]
2. CC(C)CCC[C@@H](C)[C@H]1CC[C@H]2[C@@H]3C[C@@H](C[75Se]C4CCCCC4)C4=C(CC[C@H](O)C4)[C@H]3CC[C@]12C [Example 4]
3. C[75Se]C[C@@H]1C[C@@H]2[C@H](CC[C@]3(C)[C@@H]([C@H](C)CCCC(C)C)CC[C@@H]23)C2=C1C[C@@H](O)CC2 [Example 1]
4. CC(C)CCC[C@@H](C)[C@H]1CC[C@H]2[C@@H]3C[C@@H](C[75Se](C)=O)C4=C(CC[C@H](O)C4)[C@H]3CC[C@]12C (stereo partly shown) [Example 7]

1: 101.4; 2: 89.8; 3: 211.9; 4: 95.2

# Concentration Ratio; Adrenals: Testes lookup, item CCCC[75Se]C[C@@H]1C[C@@H]2[C@H](CC[C@]3(C)[C@@H]([C@H](C)CCCC(C)C)CC[C@@H]23)C2=C1C[C@@H](O)CC2 [Example 3] 268.3
